Target: Microtubule-associated protein tau (Homo sapiens)
Test: Inhibition of tau K18 domain (unknown origin) assessed as inhibition of heparin-induced aggregation by measuring protein aggregation rate at 10 uM by thioflavin-T fluorescence assay relative to control
Design: scale not given: the % may be the effect or the level left
QUANTITY_MEASURED: Activity (%)
# value in %; strip the unit string

Please review the following examples before continuing.
| MOLECULE | QUANTITY_MEASURED | OBSERVED_MEASUREMENT |
| --- | --- | --- |
| C=CS(=O)(=O)Cc1c2ccccc2cc2ccccc12 | Activity | 21.3 |
| C=CS(=O)(=O)Cc1ccc(C(=O)c2ccccc2)cc1 | Activity | 97.3 |
| C=CS(=O)(=O)NCc1cc(C(F)(F)F)cc(C(F)(F)F)c1 | Activity | 96.9 |
| C=CS(=O)(=O)NCCNC(=O)O[C@H]1CC[C@@]2(C)C(=CC[C@H]3[C@@H]4CC[C@H]([C@H](C)CCCC(C)C)[C@@]4(C)CC[C@@H]32)C1 | Activity | 39.7 |
| C=CS(=O)(=O)Nc1ccc(C(=O)NCCCCCC(=O)N[C@@H](CCC(=O)O)C(=O)N[C@@H](C)C(=O)N[C@@H](C)C(=O)N[C@@H](CCC(=O)O)C(=O)N[C@@H](C)C(=O)N[C@@H](CCCCN)C(=O)N[C@@H](C)C(=O)N[C@@H](C)C(=O)NC(CCCCn2cc(CNC(=O)[C@H](Cc3c[nH]c4ccccc34)NC3C(=O)c4ccccc4C(=O)C3Cl)nn2)C(=O)O)cc1 (stereo partly drawn) | Activity | 15.7 |

Q) Which Activity is reported for this molecule? C=CS(=O)(=O)Cc1ccc2ccccc2c1
A) 111

Q) What would you report for C=CS(=O)(=O)Cc1cc(C(F)(F)F)cc(C(F)(F)F)c1 ?
A) 39.8

Q) Lookup C=CS(=O)(=O)Cc1ccc(-c2ccc(/C=C3/SC(=S)N(CCC(=O)OCC)C3=O)o2)cc1
A) 29.2

* * *

Target: Microtubule-associated protein tau (Homo sapiens)
Assay: Inhibition of tau K18 domain (unknown origin) assessed as inhibition of heparin-induced aggregation by measuring protein aggregation rate at 10 uM by thioflavin-T fluorescence assay relative to control
Design: scale not given: the % may be the effect or the level left
QUANTITY_MEASURED: Activity (%)
Quick note: give the figure in %, leave out the unit.

Q) Could you tell me which Activity is on file for C=CS(N)(=O)=O ?
A) 110

Q) Next compound up: C=CS(=O)(=O)c1ccccc1
A) 97.7

Q) What would you report for C=CS(=O)(=O)c1cc(C(F)(F)F)cc(C(F)(F)F)c1 ?
A) 107

Q) # repeat for C=CS(=O)(=O)Cc1cccc2cccnc12
A) 102

* * *

Parameter: Activity. Scope: all listed entries.
Biological target: Microtubule-associated protein tau (Homo sapiens)
Assay: Binding affinity to tau K18 domain (unknown origin) assessed as cysteine labelling efficiency by measuring free thiol ratio at 200 uM incubated for 24 hrs by Ellmans method relative to control
Write it as a number; the unit % goes unstated.

Solved entries (count: 3):
| COMPOUND | Activity, % |
| --- | --- |
| C=CS(=O)(=O)Cc1c2ccccc2cc2ccccc12 | 34.4 |
| C=CS(=O)(=O)Nc1ccc(C(=O)NCCCCCC(=O)N[C@@H](CCC(=O)O)C(=O)N[C@@H](C)C(=O)N[C@@H](C)C(=O)N[C@@H](CCC(=O)O)C(=O)N[C@@H](C)C(=O)N[C@@H](CCCCN)C(=O)N[C@@H](C)C(=O)N[C@@H](C)C(=O)NC(CCCCn2cc(CNC(=O)[C@H](Cc3c[nH]c4ccccc34)NC3C(=O)c4ccccc4C(=O)C3Cl)nn2)C(=O)O)cc1 (stereo not given in full) | 39.7 |
| C=CS(=O)(=O)Cc1cc(C(F)(F)F)cc(C(F)(F)F)c1 | 66.3 |

Q) Requested field: Activity. Item: C=CS(=O)(=O)NCCNC(=O)O[C@H]1CC[C@@]2(C)C(=CC[C@H]3[C@@H]4CC[C@H]([C@H](C)CCCC(C)C)[C@@]4(C)CC[C@@H]32)C1
A) 56.7

Q) Repeat for the following compound: C=CS(=O)(=O)Cc1ccc(-c2ccc(/C=C3/SC(=S)N(CCC(=O)OCC)C3=O)o2)cc1
A) 44.7
